System: DMS-273
Assay: NCI tumour cell line growth inhibition, 48 h
Active and inactive are the calls of the source. Cut-off read from the data, not from the text of the source: active = GI50 up to about 1.1 µM and inactive = higher.
READOUT_KIND: GI50

COMPOUND	TEST_RESULT
COc1cc2ccnc3c2c(c1OC)CC1CC(O)C(OC)CC31 (stereo unspecified)	34 µM (inactive)
Nc1ccc2cc(S(=O)(=O)O)cc(O)c2c1/N=N/c1ccc(NC(=O)Nc2ccc(/N=N/c3c(N)ccc4cc(S(=O)(=O)O)cc(O)c34)c(S(=O)(=O)O)c2)cc1S(=O)(=O)O	> 100 µM (inactive)
Cc1csc(CCC(N)C(=O)O)n1 (stereo unspecified)	> 100 µM (inactive)
CCCCCCCCCCCCNC(=S)OC	15.4 µM (inactive)
CC(=O)OCC1OC(n2c(=O)[nH]c(=O)c3nn[nH]c32)C(OC(C)=O)C(OC(C)=O)C1OC(C)=O (stereo unspecified)	> 100 µM (inactive)
Clc1ccc(OC2CCO2)cc1Cl (stereo unspecified)	63.1 µM (inactive)

----------
System: HCT-116
Assay: NCI tumour cell line growth inhibition, 48 h
Activity calls are given as the source filed them. Cut-off read from the data, not from the text of the source: active = GI50 up to about 1.1 µM and inactive = higher.
Outcomes: true (1) for active, false (0) for inactive

In [3]: df
Out[3]:
                                   molecule      label
0                      NN=C(S)Nc1cccc(Cl)c1  false (0)
1  C=C(CCOC)CCC1CCCCC/C1=N\N(C)C (stereo not given)  false (0)
2  Cc1ccc(C(=O)/C=C(\O)C(=O)NN=C(c2ccccc2)c2ccccc2)cc1  false (0)
3  Nc1nc(SCc2ccccc2[N+](=O)[O-])c2[nH]cnc2n1  false (0)
4  NCc1ccc(C(=O)O)cc1 [AMINOMETHYLBENZOIC ACID]  false (0)
5  CC1=C2c3ccccc3N(C(=O)/C=C/C(=O)O)[C@H]2[C@H]2C(=O)OC(=O)[C@H]2C1  false (0)
6  CC1CC2(OC2C)C(=O)OC2CCN(C)C/C=C(/COC(=O)C1(C)O)C2=O (stereo not given)  false (0)
7  O=C1NC(c2cccc3ccccc23)Nc2ccccc21 (stereo not given)   true (1)
8  CCOC(=O)CCC(NC(=O)Cc1ccc(Nc2nc3cc(F)c(F)cc3nc2C(=O)OCC)cc1)C(=O)OCC (stereo not given)  false (0)
9  O=[N+]([O-])C(/C(Cl)=C(/Cl)N1CCOCC1)=C1\NCCO1  false (0)

----------
Test system: K562
Assay: NCI tumour cell line growth inhibition, 48 h
Calls of active or inactive are those of the source. No stated cut-off is given here; in the data, active = GI50 up to about 1.1 µM and inactive = higher.
READOUT_KIND: GI50

                                    molecule          test_result
 0              CO/C(=N\N=Cc1ccccc1)c1ccncc1  > 100 µM (inactive)
 1  Cc1ccc(/N=N/c2ccc(N(CCC#N)CCC#N)cc2C)c(Br)c1   3.13 µM (inactive)
 2  CC1C(c2cc(C(C)(C)C)c(O)c(C(C)(C)C)c2)c2cc3c(cc2OC1N1CCOCC1)OCO3 (stereo unspecified)   27.1 µM (inactive)
 3  COc1ccc(CC2COc3cc(O)cc(O)c3C2=O)cc1O (stereo unspecified)   3.13 µM (inactive)
 4  CC1=C(C)SC(=C2Sc3[n-]c(=O)[nH]c(=O)c3S2)S1.CCCC[N+](CCCC)(CCCC)CCCC   49.4 µM (inactive)
 5  COC(=O)/C=C\COCC1C2CCC(=O)C21 (stereo unspecified)   8.28 µM (inactive)
 6  COc1nc(NC2OC(COC(C)=O)C(OC(C)=O)C(OC(C)=O)C2OC(C)=O)c(-c2csc(N)n2)c(=O)n1C (stereo unspecified)   60.1 µM (inactive)
 7  COC(=O)C1=C(C(=O)OC)SC(=C2S[C@@H]3[C@@H]4C[C@H]([C@@H]3S2)[C@H]2C(=O)OC(=O)[C@@H]42)S1  > 100 µM (inactive)
 8  COC(=O)C1=C(C)NC(C)=C([N+](=O)[O-])C1c1cccc(NO)c1 (stereo unspecified)   2.72 µM (inactive)
 9      CN(C)/C=C/c1ccnc2c1C(=O)c1ccccc1C2=O   2.45 µM (inactive)
10  Oc1cc(O)c2c(c1)O[C@H](c1cc(O)c(O)c(O)c1)[C@H](O)C2 [EPIGALLOCATECHIN]   20.4 µM (inactive)
11  Cc1ccc(S(=O)(=O)N(CC(O)c2ccccc2)c2ccccc2F)cc1 (stereo unspecified)     17 µM (inactive)
12     CNC(C)Cc1ccccc1O (stereo unspecified)  > 100 µM (inactive)
13  O=C(O)C(=C\c1ccc2c(c1)OCO2)/C(=C/c1ccc2c(c1)OCO2)C(=O)O  > 100 µM (inactive)
14  COc1cccc(/C=C2/S/C(=N/Nc3nc(C)c(C(C)=O)s3)NC2=O)c1O   31.1 µM (inactive)
15    CN(C)N1C(=O)C(=O)N(c2cccc3ccccc23)C1=O   > 10 µM (inactive)
16  O=C1C2c3[nH]c4ccccc4c3[C@@H]3CCCCC3C2C(=O)N1c1ccccc1 (stereo partly specified)   20.9 µM (inactive)
17  COc1cc(C2c3cc4c(cc3OC(NC3CCCCC3)C2C)OCO4)cc(OC)c1OC (stereo unspecified)    0.393 µM (active)
18  COC(=O)C1CCC(=O)C(Sc2ccccc2)C1 (stereo unspecified)   63.1 µM (inactive)
19             COc1cc(C2(C)SCCCS2)cc(OC)c1OC  > 100 µM (inactive)
20   CCCOc1ccc(/C=C/c2cc(OC)c(OC)c(OC)c2)cc1   0.0733 µM (active)
